Reference source for all entries: patent US20170081400A1

Target: T1, human TL1A extracellular domain with N-terminal HIS and FLAG tag (human, UniProt O95150 72-251)
T1 construct: the whole entry is named
T1 sequence: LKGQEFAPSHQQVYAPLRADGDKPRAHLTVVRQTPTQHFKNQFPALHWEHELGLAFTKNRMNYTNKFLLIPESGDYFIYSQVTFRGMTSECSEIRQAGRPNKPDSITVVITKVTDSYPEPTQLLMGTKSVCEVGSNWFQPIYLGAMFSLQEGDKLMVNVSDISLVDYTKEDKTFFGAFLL
Test: SPR Run 4, purified Ab captured on Protein A, TL1A 5 ug/mL, timepoint 44
Experimental readout: TL1A Binding Level (Early) (RU)
Enter your answer as a number in RU; do not include the unit.

Binder	Experimental readout	Value reported
320-315 (antibody, human IgG1, name in Kabat numbering, V domains shown, human IgG1, lambda) VH: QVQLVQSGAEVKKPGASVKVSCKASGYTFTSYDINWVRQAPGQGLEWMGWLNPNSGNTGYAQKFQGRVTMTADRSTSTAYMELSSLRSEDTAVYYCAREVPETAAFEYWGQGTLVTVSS VL: QSVLTQPPSVSGAPGQRVTISCTSSSSDIGAGLGVHWYQQLPGTAPKLLIEGYYNRPSGVPDRFSGSKSGTSASLTITGLLPEDEGDYYCLSYDGTLSALFGGGTKLTVLG	TL1A Binding Level (Early)	85

Ask | Would you kindly share the measured TL1A Binding Level (Early) for 320-317 (antibody, human IgG1, name in Kabat numbering, V domains shown, human IgG1, lambda) VH: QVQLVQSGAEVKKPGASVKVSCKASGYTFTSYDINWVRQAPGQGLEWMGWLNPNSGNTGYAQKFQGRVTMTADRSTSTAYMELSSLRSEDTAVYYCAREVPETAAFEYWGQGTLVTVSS VL: QSVLTQPPSVSGAPGQRVTISCTSSSSDIGAGLGVHWYQQLPGTAPKLLIEGYYNRPSGVPDRFSGSKSGTSASLTITGLLPEDEGDYYCYSYDGTLSALFGGGTKLTVLG ?
Reply | 86

Ask | Fill blank: measured TL1A Binding Level (Early) of the binder 320-331 (antibody, human IgG1, name in Kabat numbering, V domains shown, human IgG1, lambda) VH: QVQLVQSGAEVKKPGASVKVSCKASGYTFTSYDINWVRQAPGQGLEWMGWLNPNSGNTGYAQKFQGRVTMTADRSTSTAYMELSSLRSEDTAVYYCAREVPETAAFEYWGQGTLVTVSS VL: QSVLTQPPSVSGAPGQRVTISCTSSSSDIGAGLGVHWYQQLPGTAPKLLIEGYYNRPSGVPDRFSGSKSGTSASLTITGLLPEDEGDYYCQSWDGTLSALFGGGTKLTVLG is ____.
Reply | 173
